Test system: HLA-A*24
Experiment notes: MHC binding assay, UV-ligand exchange with β2m ELISA, HLA-A*24 (Table 21)
Set-up: species or system human
Experimental conditions: binding to HLA-A*24 ranged by peptide exchange yield (UV-ligand exchange, β2m ELISA)
Result type: Peptide exchange

Would you please look over these solved cases?
221 (RYSTGLAGNLL; listed as Homo sapiens) [compound 221] = +++ (50%-75% = +++)
288 (VYVSDIQEL; listed as Homo sapiens) [compound 288] = +++ (50%-75% = +++)
209 (TYKDEGNDYF; listed as Homo sapiens) [compound 209] = +++ (50%-75% = +++)
218 (YYKSTSSAF; listed as Homo sapiens) [compound 218] = +++ (50%-75% = +++)
164 (KFSSFSLFF; listed as Homo sapiens) [compound 164] = +++ (50%-75% = +++)

Look at this substance and give its reported Peptide exchange. 216 (QYSSVFKSL; listed as Homo sapiens) [compound 216] ++++ (≧75% = ++++)

Fill in the blank: the reported Peptide exchange of 173 (IYSWILDHF; listed as Homo sapiens) [compound 173] is ____. ++++ (≧75% = ++++)
